The molecules listed here are annotated with their IC50.
- Test System: human GPR84 receptor (Homo sapiens, UniProt Q9NQS5)
- Sequence (Q9NQS5 whole entry): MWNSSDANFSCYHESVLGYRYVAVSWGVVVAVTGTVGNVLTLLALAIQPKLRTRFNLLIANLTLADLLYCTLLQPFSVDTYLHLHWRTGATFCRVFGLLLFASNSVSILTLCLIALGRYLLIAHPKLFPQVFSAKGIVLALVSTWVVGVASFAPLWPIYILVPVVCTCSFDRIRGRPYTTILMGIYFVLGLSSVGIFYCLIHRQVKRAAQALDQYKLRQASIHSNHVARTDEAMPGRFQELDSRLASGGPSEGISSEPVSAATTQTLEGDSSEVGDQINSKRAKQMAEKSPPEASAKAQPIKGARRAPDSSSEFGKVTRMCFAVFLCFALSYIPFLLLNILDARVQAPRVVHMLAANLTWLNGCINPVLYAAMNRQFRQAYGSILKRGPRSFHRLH
- Protocol Details: Gαi biosensor BRET assay in transfected HEK293 cells (antagonism of GPR84 agonist ZQ-16)
- Test Parameters: 200 nmol/L ZQ-16
- Procedure: Background—The following assays can be used for determination of GPR84 activation in living HEK293 cells. […] Bioluminescence Resonance Energy Transfer (BRET) Measurement—HEK293 cells were transfected with GPR84-Rluc8 and rGFP-FYVE for the EEs trafficking biosensor or with GPR84, Gαi2-Rluc8, GFP10-Gγ2, and Gβ1 for the Gαi biosensor. […] The BRET signal was calculated as the ratio of light emitted by acceptor (GFP10, rGFP) over the light emitted by donor (Rluc8). […]

- Line Notation: "O=C(c1cn(CC2OCC3(CC3)CO2)nn1)N(c1ccc(C#CC2CC2)cc1F)C1CC1"
  Test System: "human GPR84 receptor (Homo sapiens, UniProt Q9NQS5)"
  IC50: "≤ 300 nM"
- Line Notation: "CN(C(=O)c1cn(CC2OCC3(CC3)CO2)nn1)c1ccc(C#CC2CC2)cc1Br"
  Test System: "human GPR84 receptor (Homo sapiens, UniProt Q9NQS5)"
  IC50: "≤ 300 nM"
- Line Notation: "CCc1ccc(C#CC2CC2)cc1N(C)C(=O)c1cn(CC2OCC3(CC3)CO2)nn1"
  Test System: "human GPR84 receptor (Homo sapiens, UniProt Q9NQS5)"
  IC50: "300 to 1000 nM"
- Line Notation: "CN(C(=O)c1cn(CC2OCC3(CC3)CO2)nn1)c1cc(C#CC2CC2)ccc1Br"
  Test System: "human GPR84 receptor (Homo sapiens, UniProt Q9NQS5)"
  IC50: "300 to 1000 nM"
- Line Notation: "CN(C(=O)c1cn(CC2OCC3(CC3)CO2)nn1)c1cc(C#CC2CC2)ccc1C1CC1"
  Test System: "human GPR84 receptor (Homo sapiens, UniProt Q9NQS5)"
  IC50: "300 to 1000 nM"
- Line Notation: "Cc1cc(C#CC2CC2)ccc1N(C)C(=O)c1cnn(CC2OCC3(CC3)CO2)c1"
  Test System: "human GPR84 receptor (Homo sapiens, UniProt Q9NQS5)"
  IC50: "300 to 1000 nM"
- Line Notation: "CN(C)c1ccc(C#CC2CC2)cc1N(C)C(=O)c1cn(CC2OCC3(CC3)CO2)nn1"
  Test System: "human GPR84 receptor (Homo sapiens, UniProt Q9NQS5)"
  IC50: "300 to 1000 nM"
- Line Notation: "CN(C(=O)c1cn(CC2OCC3(CC3)CO2)nn1)c1ccc(C#CC2CC2)cc1Cl"
  Test System: "human GPR84 receptor (Homo sapiens, UniProt Q9NQS5)"
  IC50: "≤ 300 nM"
- Line Notation: "O=C(c1cn(CC2OCC3(CC3)CO2)nn1)N(c1cc(C#CC2CC2)ccc1F)C1CC1"
  Test System: "human GPR84 receptor (Homo sapiens, UniProt Q9NQS5)"
  IC50: "≤ 300 nM"
- Line Notation: "CN(C(=O)c1cn(CC2OCC3(CC3)CO2)nn1)c1cccc(C#CC2CC2)c1"
  Test System: "human GPR84 receptor (Homo sapiens, UniProt Q9NQS5)"
  IC50: "300 to 1000 nM"
- Line Notation: "O=C(c1cn(CC2OCC3(CC3)CO2)nn1)N(c1cc(C#CC2CC2)ccc1Br)C1CC1"
  Test System: "human GPR84 receptor (Homo sapiens, UniProt Q9NQS5)"
  IC50: "300 to 1000 nM"
- Line Notation: "CN(C(=O)c1cn(CC2OCC3(CC3)CO2)cn1)c1ccc(C#CC2CC2)cc1F"
  Test System: "human GPR84 receptor (Homo sapiens, UniProt Q9NQS5)"
  IC50: "≤ 300 nM"
- Line Notation: "CN(C)c1cc(C#CC2CC2)ccc1N(C)C(=O)c1cn(CC2OCC3(CC3)CO2)nn1"
  Test System: "human GPR84 receptor (Homo sapiens, UniProt Q9NQS5)"
  IC50: "300 to 1000 nM"
- Line Notation: "Cc1cc(C#CC2CC2)ccc1N(C(=O)c1cn(CC2OCC3(CC3)CO2)nn1)C(C)C"
  Test System: "human GPR84 receptor (Homo sapiens, UniProt Q9NQS5)"
  IC50: "≤ 300 nM"
- Line Notation: "CN(C(=O)c1cn(CC2OCC3(CC3)CO2)nn1)c1c(F)cc(C#CC2CC2)cc1F"
  Test System: "human GPR84 receptor (Homo sapiens, UniProt Q9NQS5)"
  IC50: "≤ 300 nM"
